# Test system: p-chloroamphetamine induced hyperactivity
# Assay Info: inhibition of p-chloroamphetamine (pCA) induced hyperactivity
# Format: in vivo
# Reported Conditions: female mice; 50 mg/kg po; 20 mg/kg pCA ip 30 min later; activity 10-30 min post pCA
# Experimental: Compounds of formula I were also tested for their ability to inhibit p-chloroamphetamine induced hyperactivity. The following procedure was used: Three groups of 4 female mice (20-24 g) received the test compounds (50 mg/kg po) and a fourth group the requisite volume of vehicle. […] The grouped mice are placed immediately in square plastic cages in activity monitors and their motor activity recorded over the period 10-30 minutes post pCA. […]
Experimental Endpoint: % Inhibition of pCA induced hyperactivity

- Chemical String: "O=C1c2ccc(Cl)cc2C(=O)N1C1CCN(Cc2c[nH]c3ccccc23)CC1"
  Result: "63%"
- Chemical String: "O=C1c2ccccc2S(=O)(=O)N1C1CCN(Cc2c[nH]c3ccccc23)CC1"
  Result: "56%"
- Chemical String: "O=C1c2ccc(Cl)cc2C(=O)N1C1CCN(CCc2c[nH]c3ccccc23)CC1"
  Result: "94%"
- Chemical String: "O=C1c2ccccc2C(=O)N1C1CCN(Cc2c[nH]c3ccccc23)CC1"
  Result: "53%"

====

# Tested on: neuronal uptake of noradrenaline into slices of cerebral cortex
# Assay Info: inhibition of noradrenaline uptake in brain slices
# Format: biochemical, rat
# Reported Conditions: rat cerebral cortex slices; H^3 noradrenaline; imipramine = 1.0
Each record here notes measured Potency Ratio (imipramine = 1.0) Noradrenaline.
Experimental Endpoint: Potency Ratio (imipramine = 1.0) Noradrenaline

- Chemical String: "O=C1c2ccccc2C(=O)N1C1CCN(Cc2c[nH]c3ccccc23)CC1"
  Quantitative Readout: 0.01
- Chemical String: "O=C1c2ccccc2C(=O)N1C1CCN(CCc2c[nH]c3ccccc23)CC1"
  Quantitative Readout: 0.06

====

# Test system: uptake of 5-hydroxytryptamine
# Assay Info: inhibition of 5-hydroxytryptamine uptake in brain slices
# Assay type: biochemical, rat
# Reported Conditions: rat brain slices
Experimental Endpoint: inhibition of 5-HT (hydroxytryptamine) uptake (in words)

- Chemical String: "O=C1c2ccccc2C(=O)N1C1CCN(Cc2c[nH]c3ccccc23)CC1"
  Result: "potent inhibitors"
- Chemical String: "O=C1c2ccccc2C(=O)N1C1CCN(CCc2c[nH]c3ccccc23)CC1"
  Result: "potent inhibitors"
- Chemical String: "Nc1ccc2c(c1)C(=O)N(C1CCN(CCc3c[nH]c4ccccc34)CC1)C2=O"
  Result: "potent inhibitors"
